Where these numbers come from: patent US10112932B2

# experimental.details: Multiple day oral dosing in dogs (exposure, clinical and anatomic pathology)
# Type: in vivo, Beagle dogs
# assay.setup: beagle, dog, plasma, po, 0.5 mg/kg/day; read-out: Exposure AUC0-24 hr, D14, total
outcome.measure: AUC(0-t) (µM·h)

- smiles.entry: "C[C@H](Nc1ccc2c(c1)OCCn1cc(N3C(=O)OC[C@H]3C(F)F)nc1-2)C(N)=O"
  uom: "µM·h"
  numeric.result: 2

* * *

# Tested on: CD69 expression in CD19+ CD27− B cells
# experimental.details: B-cell a-IgM CD69 expression, human whole blood assay (Example 906)
# Type: cell-based
# assay.setup: human whole-blood IC50 multiplied by measured human fu, read-out: B-cell a-IgM CD69 expression IC50, plasma-protein-binding corrected
# maps each entry to its log10(IC50)
outcome.measure: log10(IC50) (log10 of the value in nM)

- smiles.entry: "CC(C)n1ncnc1-c1cn2c(n1)-c1ccc(O[C@@H](C)C(N)=O)cc1OCC2"
  log10(IC50): 1.30
- smiles.entry: "NC(=O)[C@@H](Nc1ccc2c(c1)OCCn1cc(N3C(=O)OC[C@H]3C(F)F)nc1-2)C1CC1"
  log10(IC50): 1.88
- smiles.entry: "CC[C@H](Nc1ncnc2nc[nH]c12)c1nc2cccc(F)c2c(=O)n1-c1ccccc1"
  log10(IC50): 1.68
- smiles.entry: "C[C@H](Nc1ccc2c(c1)OCCn1cc(N3C(=O)OC[C@H]3C(F)F)nc1-2)C(N)=O"
  log10(IC50): 1.67
- smiles.entry: "Cc1nc(-c2cn3c(n2)-c2ccc(-c4cnn(C(C)(C)C(N)=O)c4)cc2OCC3)n(C(C)C)n1"
  log10(IC50): -0.51
- smiles.entry: "Cc1nc(NC(=O)N2CCC[C@H]2C(N)=O)sc1-c1ccnc(C(C)(C)C(F)(F)F)c1"
  log10(IC50): 1.68

* * *

# experimental.details: Multiple day oral dosing in dogs (exposure, clinical and anatomic pathology)
# Format: in vivo, Beagle dogs
# assay.setup: Beagle, plasma, po; dog, alpelisib (BYL-719) 10 mg/kg/day QD, D7; read-out: Exposure AUC0-24 hr, D7, total
# Excerpt: The extent and severity of findings is consistent with increased inhibition of PI3Kδ (delta) at exposure multiples over CD69 IC50 for the comparator compounds.
outcome.measure: AUC(0-t) (µM·h)

- smiles.entry: "Cc1nc(NC(=O)N2CCC[C@H]2C(N)=O)sc1-c1ccnc(C(C)(C)C(F)(F)F)c1"
  numeric.result: 31.7

* * *

# Tested on: HDQ-P1 (PI3Kα wild-type), p-PRAS40
# experimental.details: p-PRAS40 MSD assay in HDQ-P1 cells (Example 907)
# assay.setup: read-out: P-PRAS40 HDQ-P1 MSD EC50; 24 hours treatment
pEC50: −log10 of the molar value.

- compound: "Cc1nc(-c2cn3c(n2)-c2ccc(-c4cnn(C(C)(C)C(N)=O)c4)cc2OCC3)n(C(C)C)n1 [taselisib]"
  pEC50: 7.26

* * *

# experimental.details: Multiple day oral dosing in dogs (exposure, clinical and anatomic pathology)
# Format: in vivo, Beagle dogs
# assay.setup: beagle, dog, plasma, po, 0.05 mg/kg/day; read-out: Exposure AUC0-24 hr, D14, total
outcome.measure: AUC(0-t)

- molecule: "C[C@H](Nc1ccc2c(c1)OCCn1cc(N3C(=O)OC[C@H]3C(F)F)nc1-2)C(N)=O [Compound 101]"
  result: "0.23 µM·h"

* * *

# experimental.details: Multiple day oral dosing in dogs (exposure, clinical and anatomic pathology)
# Assay type: in vivo, Beagle dogs
# assay.setup: Beagle, dog, plasma, po, 3 mg/kg/day; read-out: Cmax D7, total

- smiles.entry: "Cc1nc(-c2cn3c(n2)-c2ccc(-c4cnn(C(C)(C)C(N)=O)c4)cc2OCC3)n(C(C)C)n1"
  uom: "nM"
  Cmax: 1090

* * *

# tested.system: PI3Kα (Homo sapiens (Human), UniProt P42336)
# Sequence (P42336 whole entry): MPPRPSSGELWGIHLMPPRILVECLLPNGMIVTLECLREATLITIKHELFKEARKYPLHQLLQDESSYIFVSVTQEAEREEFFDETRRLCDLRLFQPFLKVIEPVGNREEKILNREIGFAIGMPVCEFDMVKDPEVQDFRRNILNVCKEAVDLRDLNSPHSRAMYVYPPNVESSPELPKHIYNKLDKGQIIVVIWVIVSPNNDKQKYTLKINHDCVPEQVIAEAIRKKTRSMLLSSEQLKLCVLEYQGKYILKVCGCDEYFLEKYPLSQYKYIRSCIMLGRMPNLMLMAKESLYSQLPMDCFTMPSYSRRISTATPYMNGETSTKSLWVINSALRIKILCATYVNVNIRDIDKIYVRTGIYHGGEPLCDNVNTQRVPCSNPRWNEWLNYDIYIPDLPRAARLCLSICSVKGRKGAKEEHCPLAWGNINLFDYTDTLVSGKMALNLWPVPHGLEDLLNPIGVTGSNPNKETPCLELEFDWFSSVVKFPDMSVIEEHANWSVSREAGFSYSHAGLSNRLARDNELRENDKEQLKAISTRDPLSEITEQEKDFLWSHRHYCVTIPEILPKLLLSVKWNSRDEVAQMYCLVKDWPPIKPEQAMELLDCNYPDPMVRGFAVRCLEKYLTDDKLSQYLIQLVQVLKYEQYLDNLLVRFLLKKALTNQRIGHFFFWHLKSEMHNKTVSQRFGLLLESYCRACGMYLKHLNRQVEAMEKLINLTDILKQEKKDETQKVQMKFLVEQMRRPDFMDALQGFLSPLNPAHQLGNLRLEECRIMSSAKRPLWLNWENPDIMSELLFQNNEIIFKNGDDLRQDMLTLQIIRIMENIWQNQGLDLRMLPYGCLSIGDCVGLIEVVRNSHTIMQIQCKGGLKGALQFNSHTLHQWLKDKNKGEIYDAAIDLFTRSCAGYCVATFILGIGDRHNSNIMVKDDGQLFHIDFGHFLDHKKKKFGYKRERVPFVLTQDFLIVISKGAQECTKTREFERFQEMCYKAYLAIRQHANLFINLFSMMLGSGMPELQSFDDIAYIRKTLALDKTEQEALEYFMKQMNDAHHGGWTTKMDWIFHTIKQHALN
# Sequence (P27986 whole entry partner): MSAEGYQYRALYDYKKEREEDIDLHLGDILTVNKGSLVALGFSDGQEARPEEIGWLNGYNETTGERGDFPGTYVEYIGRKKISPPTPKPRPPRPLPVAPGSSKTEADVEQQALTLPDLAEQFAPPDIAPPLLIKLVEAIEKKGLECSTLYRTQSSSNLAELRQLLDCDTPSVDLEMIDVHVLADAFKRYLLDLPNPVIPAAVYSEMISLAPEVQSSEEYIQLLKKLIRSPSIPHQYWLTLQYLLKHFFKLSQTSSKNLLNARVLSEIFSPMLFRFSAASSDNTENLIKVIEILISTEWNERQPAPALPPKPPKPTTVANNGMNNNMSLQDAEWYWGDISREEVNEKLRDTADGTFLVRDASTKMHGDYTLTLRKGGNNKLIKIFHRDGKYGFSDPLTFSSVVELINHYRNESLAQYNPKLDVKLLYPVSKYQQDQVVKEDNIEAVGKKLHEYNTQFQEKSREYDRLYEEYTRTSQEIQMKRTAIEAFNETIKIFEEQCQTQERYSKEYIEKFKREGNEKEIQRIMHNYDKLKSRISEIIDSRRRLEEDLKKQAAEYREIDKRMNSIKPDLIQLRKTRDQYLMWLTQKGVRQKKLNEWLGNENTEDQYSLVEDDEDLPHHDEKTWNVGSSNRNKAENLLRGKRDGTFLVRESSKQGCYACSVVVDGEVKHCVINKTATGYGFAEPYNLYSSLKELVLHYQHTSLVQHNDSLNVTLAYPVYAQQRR
# experimental.details: Biochemical inhibition of PI3K alpha (ADP-Glo lipid kinase assay, Example 901)
# assay.setup: Ki ratio gamma/alpha, fold
# Description: Reactions are carried out using the following conditions for each PI3K isoform as in Table 5. All reactions are carried out at room temperature. […] The reaction is started by the addition of 2 μl ATP/MgCl2. […] Plates are read in a Perkin Elmer Envision system using luminescence mode. […] Ki values for each compound are determined using the Morrison Equation.
outcome.measure: Selectivity for PI3Kα vs. PI3Kγ

- smiles.entry: "C[C@H](Nc1ccc2c(c1)OCCn1cc(N3C(=O)OC[C@H]3CF)nc1-2)C(N)=O"
  tested.system: "PI3Kα (Homo sapiens (Human), UniProt P42336)"
  outcome.measure: "Selectivity for PI3Kα vs. PI3Kγ"
  result: 444
- smiles.entry: "CC[C@H](Nc1ccc2c(c1)OCCn1cc(N3C(=O)OC[C@H]3C(F)F)nc1-2)C(N)=O"
  tested.system: "PI3Kα (Homo sapiens (Human), UniProt P42336)"
  outcome.measure: "Selectivity for PI3Kα vs. PI3Kγ"
  result: 499
- smiles.entry: "C[C@@H]1COC(=O)N1c1cn2c(n1)-c1ccc(N[C@H](C(N)=O)C3CC3)cc1OCC2"
  tested.system: "PI3Kα (Homo sapiens (Human), UniProt P42336)"
  outcome.measure: "Selectivity for PI3Kα vs. PI3Kγ"
  result: 622
- smiles.entry: "C[C@@H]1COC(=O)N1c1cn2c(n1)-c1ccc(N[C@H](C(N)=O)C3CCC3)cc1OCC2"
  tested.system: "PI3Kα (Homo sapiens (Human), UniProt P42336)"
  outcome.measure: "Selectivity for PI3Kα vs. PI3Kγ"
  result: 746
- smiles.entry: "C[C@H](Nc1ccc2c(c1)OCCn1cc(N3C(=O)OC[C@H]3C(F)F)nc1-2)C(N)=O"
  tested.system: "PI3Kα (Homo sapiens (Human), UniProt P42336)"
  outcome.measure: "Selectivity for PI3Kα vs. PI3Kγ"
  result: 537

* * *

# experimental.details: Multiple day oral dosing in dogs (exposure, clinical and anatomic pathology)
# Format: in vivo, Beagle dogs
# assay.setup: Beagle, dog, plasma, oral, 0.1 mg/kg/day; read-out: Cmin D14, total

- smiles.entry: "NC(=O)[C@@H](Nc1ccc2c(c1)OCCn1cc(N3C(=O)OC[C@H]3C(F)F)nc1-2)C1CC1"
  uom: "nM"
  concentration at 14 day: 4.8

* * *

# tested.system: PI3Kα (Homo sapiens (Human))
# experimental.details: Biochemical inhibition of PI3K alpha (ADP-Glo lipid kinase assay, Example 901)
# assay.setup: Ki ratio delta/alpha, fold
Think of 50 as a floor: if Selectivity for PI3Kα vs. PI3Kδ stands on it or above, it is t; beneath it, f.

- molecule: "CC[C@H](Nc1ccc2c(c1)OCCn1cc(N3C(=O)OC[C@H]3C(F)F)nc1-2)C(N)=O"
  group.label: "t"
- molecule: "C[C@H](Nc1ccc2c(c1)OCCn1cc(-c3ncnn3CC(F)(F)F)nc1-2)C(N)=O [Compound 529, reference compound]"
  group.label: "f"
- molecule: "C[C@H](Oc1ccc2c(c1)OCCn1cc(-c3ncnn3CC(F)(F)F)nc1-2)C(N)=O [Compound 486, reference compound]"
  group.label: "f"
- molecule: "C[C@@H]1COC(=O)N1c1cn2c(n1)-c1ccc(N[C@H](C(N)=O)C3CC3)cc1OCC2"
  group.label: "t"
- molecule: "NC(=O)[C@@H]1CCCN1c1ccc2c(c1)OCCn1cc(-c3ncnn3CC(F)(F)F)nc1-2 [Compound 469, reference compound]"
  group.label: "f"
- molecule: "CC(C)n1ncnc1-c1cn2c(n1)-c1ccc(N(C)[C@@H](C)C(N)=O)cc1OCC2 [Compound 550, reference compound]"
  group.label: "f"

* * *

# Test system: CD69 expression in CD19+ CD27− B cells
# experimental.details: B-cell a-IgM CD69 expression, human whole blood assay (Example 906)
# Type: cell-based
# assay.setup: Homo sapiens, whole-blood, uncorrected, read-out: a-IgM stimulated CD69 expression (whole-blood) IC50
pIC50: −log10 of the molar value.
outcome.measure: pIC50

- smiles.entry: "C[C@H](Nc1ccc2c(c1)OCCn1cc(N3C(=O)OC[C@H]3C(F)F)nc1-2)C(N)=O"
  tested.system: "CD69 expression in CD19+ CD27− B cells"
  outcome.measure: "pIC50"
  numeric.result: 7.17
- smiles.entry: "CC(C)n1ncnc1-c1cn2c(n1)-c1ccc(O[C@@H](C)C(N)=O)cc1OCC2"
  tested.system: "CD69 expression in CD19+ CD27− B cells"
  outcome.measure: "pIC50"
  numeric.result: 7.35
- smiles.entry: "Cc1nc(-c2cn3c(n2)-c2ccc(-c4cnn(C(C)(C)C(N)=O)c4)cc2OCC3)n(C(C)C)n1"
  tested.system: "CD69 expression in CD19+ CD27− B cells"
  outcome.measure: "pIC50"
  numeric.result: 8.51
